Assay: Toxicity liver stage against HepG2, at 10uM
Type: cell-based
Parameters: test concentration 10 uM, cell line HepG2-A16-CD81EGFP
Conditions: human, HepG2-A16-CD81EGFP cells; read-out: INHIBITION
Would you kindly list cytotoxicity at 10 µM for each of these compounds?
Give bare numbers, in %.

Some solved entries appear below for comparison.
- compound: "COc1c(C)cnc(CN(C)C(=O)c2ccccc2O)c1C"
  readoutLabel: "cytotoxicity at 10 µM"
  reported: -14.3
- compound: "Cc1csc(C2CCCN(C(=O)c3cnc[nH]3)C2)n1 (stereo unspecified)"
  readoutLabel: "cytotoxicity at 10 µM"
  reported: -10.7
- compound: "CN(C)C(=O)NC1COC2(CCN(Cc3nccn3C)CC2)C1 (stereo unspecified)"
  readoutLabel: "cytotoxicity at 10 µM"
  reported: 9.48
- compound: "CN(Cc1ccc(Cl)c(F)c1)C(=O)CCc1ccncc1"
  readoutLabel: "cytotoxicity at 10 µM"
  reported: 3.31
- compound: "C[C@@H](CO)Nc1cc(-c2cn[nH]c2)ncn1"
  readoutLabel: "cytotoxicity at 10 µM"
  reported: -10.6

Continue with the compound presented below.
The compound identified as Cc1cccc(-c2noc(Cn3nc(C(N)=O)ccc3=O)n2)c1 registered its cytotoxicity at 10 µM at -1.15
